- ASSAY DETAILS: qHTS assay for small molecule disruptors of the mitochondrial membrane potential (AID 720635)
- MEASUREMENT CONTEXT: HepG2 mitochondrial membrane potential, Mito-MPS dye ratio; series mostly up to 83.2 µM
Inconclusive results are not listed. Activity calls are given as the source filed them. Calls follow the shape of the dose curve; as a rule, active = well fitted inhibition curve with a large enough effect in the signal ratio in the repeat runs; inconclusive = weak or mixed curves, or effect the other way; inactive = flat fitted curve, though single readings scatter; the % refers to the signal ratio.
Your response should consist of one outcome taken from active, inactive

How did this test come out for CC(C)OC(=O)c1cc2c(OCC(O)CNC(C)(C)C)cccc2[nH]1 (stereo unspecified) ?
inactive

Now the compound CCCN(CCC)c1c([N+](=O)[O-])cc(C(F)(F)F)c(N)c1[N+](=O)[O-]
active

Now the compound CCCCCOC(=O)CCCC
inactive

Now the compound COc1ccc(C(=O)/C(Br)=C\C(=O)O)cc1
inactive

Now the compound CC(C)(C)C(=O)OCOC(=O)[C@@H]1N2C(=O)[C@@H](NC(=O)[C@H](N)c3ccccc3)[C@H]2SC1(C)C
inactive

Now the compound C/C=C1/C(=O)C[C@H]2[C@@H]3CCC4=CC(=O)CC[C@]4(C)[C@H]3CC[C@]12C
inactive

Now the compound CC[C@H]1O[C@]2(CC[C@@H]1C)C[C@@H]1C[C@@H](C/C=C(\C)C[C@@H](C)/C=C/C=C3\CO[C@@H]4[C@H](O)C(C)=C[C@@H](C(=O)O1)[C@]34O)O2
active

Now the compound O=C(OCC(COC(=O)c1ccccc1)(COC(=O)c1ccccc1)COC(=O)c1ccccc1)c1ccccc1
active

Now the compound O=C(Nc1cccc([N+](=O)[O-])c1)c1cc2ccccc2cc1O
active

Now the compound O=c1cccccc1O
active

Now the compound Nc1ccc2c3c(cccc13)-c1ccccc1-2
active

Now the compound CCCCCCCCCCCCCCCC(=O)OC[C@H](O)[C@H]1OC(=O)C(O)=C1O
inactive

Now the compound ON=C1CCCC1
inactive

Now the compound CC(C)=CCOc1ccc(/C=C/C(=O)c2ccc(OCC=C(C)C)cc2OCC(=O)O)cc1
active

Now the compound CCCCCCCC/C=C\CCCCCCCCOCCO
active

Now the compound CCCC(=O)OC[C@@H](OC(=O)CCC)[C@@H](OC(=O)CCC)[C@H](Cn1c2nc(=O)[nH]c(=O)c-2nc2cc(C)c(C)cc21)OC(=O)CCC
active

Now the compound C=C(C)C(=O)OCC(O)COc1ccc(C(C)(C)c2ccc(OCC(O)COC(=O)C(=C)C)cc2)cc1 (stereo unspecified)
active

Now the compound CCC(C)Nc1ccc(NC(C)CC)cc1 (stereo unspecified)
active

Now the compound Cc1ccc2oc(CN(Cc3ccccc3)C(=O)Nc3c(F)cc(F)cc3F)c(-c3ccc(Cl)cc3)c2c1
active

Now the compound CSc1ccc(C(=O)c2[nH]c(=O)[nH]c2C)cc1
inactive

Now the compound CCc1oc2ccccc2c1C(=O)c1cc(Br)c(O)c(Br)c1
active

----------
- ASSAY DETAILS: Caspase-3/7 induction in HepG2 cells by small molecules, qHTS assay (AID 1346978); also: nearly all actives have a fitted effect of over 15% in size; also: potency is read from the fitted curve at half-maximal effect
- MEASUREMENT CONTEXT: HepG2 caspase-3/7 activation, Caspase-Glo luminescence, 17 h; series mostly up to 92.4 µM
Results filed as inconclusive are left out. Calls of active or inactive are those of the source. Calls follow the shape of the dose curve; as a rule, active = well fitted activation curve with a large enough effect in the repeat runs; inconclusive = weak or mixed curves; inactive = flat fitted curve, though single readings scatter.
OBSERVABLE: Potency

Answered examples (10):
COMPOUND	OBSERVABLE	READOUT VALUE
C[C@]12CCC(=O)C=C1CC[C@@H]1[C@@H]2[C@@H](O)C[C@@]2(C)[C@H]1CC[C@]2(O)C(=O)COC(=O)CCC(=O)O	Potency	inactive
ON=C1CCCC1	Potency	inactive
c1cc(C(c2ccc(OCC3CO3)cc2)c2ccc(OCC3CO3)cc2)ccc1OCC1CO1 (stereo not given)	Potency	inactive
O=C1c2c(O)ccc(Nc3ccc(CCO)cc3)c2C(=O)c2c([N+](=O)[O-])ccc(O)c21	Potency	inactive
C=C(C)C(=O)OCC(O)COc1ccc(C(C)(C)c2ccc(OCC(O)COC(=O)C(=C)C)cc2)cc1 (stereo not given)	Potency	inactive
CCOC(=O)O[C@H](C)OC(=O)c1ccc2c(c1)cc(C(=O)NC1CCN(C(C)C)CC1)n2Cc1cc(-c2ccc(Cl)s2)on1	Potency	45.4 µM (active)
On1ccccc1=S	Potency	1.71 µM (active)
Oc1ccc2cc(SSc3ccc4cc(O)ccc4c3)ccc2c1	Potency	inactive
O=C(O)c1c(Cl)cccc1Cl	Potency	inactive
Cc1cccc(S(=O)(=O)O)c1C	Potency	inactive

Requested field: Potency. Item: Cc1c(C)c2c(c(C)c1O)CCC(C)(COc1ccc(CC3SC(=O)NC3=O)cc1)O2 (stereo not given)
inactive

Now the compound CC(C)CCCCCCCCCCCCCCC(=O)O
inactive

Now the compound CCN(CCC#N)c1ccc(N=Nc2c(Cl)cc([N+](=O)[O-])cc2Cl)cc1
inactive

Now the compound O=C(Nc1cccc(C(F)(F)F)c1)c1cc(Br)cc(Br)c1O
inactive

Now the compound CC(C)(C)c1ccc(C(=O)O)cc1
inactive

Now the compound C/C(=C(/OCCOc1ccc(Cl)cc1)c1ccc(Cl)cc1Cl)n1ccnc1
inactive

Now the compound COCCCC/C(=N\OCCN)c1ccc(C(F)(F)F)cc1
inactive

Now the compound O=[N+]([O-])c1ccccc1Nc1ccccc1
inactive

Now the compound CCN(CC)CCCC(C)Nc1c2ccc(Cl)cc2nc2ccc(OC)cc12 (stereo not given)
29.8 µM (active)

Now the compound CC/C(=C(\c1ccc(O)cc1)c1ccc(OCCN(C)C)cc1)c1ccccc1
34.4 µM (active)

----------
- ASSAY DETAILS: qHTS assay for small molecule agonists of the p53 signaling pathway - cell viability (AID 651633); also: nearly all actives have a fitted effect of over 30% in size
- MEASUREMENT CONTEXT: p53RE-bla HCT-116 viability, ATP luminescence, 16 h; series mostly up to 83.3 µM
Inconclusive results are not listed. Calls of active or inactive are those of the source. The call rests on the fitted dose curve.
Your response should consist of one outcome taken from active, inactive

How did this test come out for O=C(O)c1ccc(Cl)c(Cl)c1 ?
inactive

Now the compound CCOC(=O)/C=C(C)/C=C/C=C(C)/C=C/c1c(C)cc(OC)c(C)c1C
inactive

Now the compound C=CC(=O)OCC(CO)(COC(=O)C=C)COC(=O)C=C
active

Now the compound Fc1ccc(C(c2ccc(F)cc2)N2CCN(C/C=C/c3ccccc3)CC2)cc1
active

Now the compound Cc1cc(=O)oc2cc(N(C)C)ccc12
inactive

Now the compound CCc1cc(Cc2cc(CC)cc(C(C)(C)C)c2O)c(O)c(C(C)(C)C)c1
active

Now the compound Clc1ccc2n[nH]nc2c1
inactive

Now the compound CCN(C(=O)N(CC)c1ccccc1)c1ccccc1
inactive

Now the compound N=C1N=C(N)c2ccccc21
active

Now the compound CN(C)c1ccc(C2(c3ccc(N(C)C)cc3)OC(=O)c3cc(N(C)C)ccc32)cc1
inactive

Now the compound Cc1cc(C2CCCCC2)n(O)c(=O)c1
inactive

Now the compound NC(=O)N1C(=O)C(C(=O)c2cc(Cl)cs2)c2cc(F)c(Cl)cc21 (configuration not stated)
active

----------
- ASSAY DETAILS: qHTS assay to identify small molecule agonists of the TGF-beta/Smad signaling pathway - cell viability counter screen (AID 1346829); also: nearly all actives have a fitted effect of over 45% in size
- MEASUREMENT CONTEXT: SBE-bla HEK293T viability, CellTiter-Glo luminescence, 5 h; series mostly up to 76.8 µM
Records with an inconclusive call do not appear. Activity calls are given as the source filed them. The call rests on the fitted dose curve; in most records, active means well fitted cell-killing curve with a large enough effect in the repeat runs; inconclusive means weak or mixed curves, or effect the other way; inactive means flat fitted curve, though single readings scatter.
Your response should consist of one outcome taken from t (active), f (inactive)

How did this test come out for O=C(Oc1ccccc1)c1ccccc1C(=O)Oc1ccccc1 ?
f

Now the compound c1ccc(CSCc2ccccc2)cc1
f

Now the compound C=C(C)C(=O)OCC[N+](C)(C)C
f

Now the compound CCOC(=O)O[C@]1(C(=O)OCCl)CC[C@H]2[C@@H]3CCC4=CC(=O)C=C[C@]4(C)[C@H]3[C@@H](O)C[C@@]21C
f

Now the compound CCC(C)(C)C1CCCCC1OC(C)=O (configuration not stated)
f

Now the compound Cc1cc(O)c(C(C)(C)C)cc1C(C)(C)C
t

Now the compound CCCCN1C(=O)[C@@H]([C@H](O)C2CCCCC2)NC(=O)C12CCN(Cc1ccc(Oc3ccc(C(=O)O)cc3)cc1)CC2
f

Now the compound CN1CCN(CCC(=O)N2c3ccccc3Sc3ccc(C(F)(F)F)cc32)CC1
f

Now the compound COc1c(C)c2c(c(O)c1C/C=C(\C)CCC(=O)O)C(=O)OC2
f

Now the compound Oc1ccc2c(c1)-c1ccccc1C2
f

Now the compound CCCCCCCC[N+](CCCCCCCC)(CCCCCCCC)CCCCCCCC
t

Now the compound CCCC(=O)OC[C@@H](OC(=O)CCC)[C@@H](OC(=O)CCC)[C@H](Cn1c2nc(=O)[nH]c(=O)c-2nc2cc(C)c(C)cc21)OC(=O)CCC
f

Now the compound CC(C)(C)CC(C)(C)c1ccc(OCCOCC[N+](C)(C)Cc2ccccc2)cc1
t

Now the compound O=C1CCCc2c1cc1ccc3cccc4ccc2c1c34
f

Now the compound CN(C)[C@@H]1C(=O)C(C(N)=O)=C(O)[C@@]2(O)C(=O)C3=C(O)c4c(O)ccc(Cl)c4[C@@H](O)[C@H]3C[C@@H]12
f

Now the compound Nc1ccccc1O
f

Now the compound CCOC(=O)/C=C(C)/C=C/C=C(C)/C=C/c1c(C)cc(OC)c(C)c1C
f

Now the compound CCCCCCCCCCC=O
f

Now the compound O=CC=C(c1ccccc1)c1ccccc1
f

Now the compound CCCCCCCCCCCCCC[P+](CCCC)(CCCC)CCCC (tested in a mixture with another compound)
t

Now the compound NC(=O)NS(=O)(=O)c1ccc(N)cc1
f

Now the compound C[C@H](CCC(=O)O)[C@H]1CC[C@H]2[C@@H]3CC[C@@H]4C[C@H](O)CC[C@]4(C)[C@H]3CC[C@]12C
f
